Sourced from ChEMBL document CHEMBL4177521

- assay comment: Half life in rat liver microsomes
- Assay type: ADME, microsome
parameter: half-life

# query: half-life of entry O=C(N[C@H]1CNC1=O)OCCCCC1CCCCC1
< 5 min

----------
- system tested: N-acylethanolamine-hydrolyzing acid amidase (Rattus norvegicus, UniProt Q5KTC7)
- Sequence (Q5KTC7 whole entry): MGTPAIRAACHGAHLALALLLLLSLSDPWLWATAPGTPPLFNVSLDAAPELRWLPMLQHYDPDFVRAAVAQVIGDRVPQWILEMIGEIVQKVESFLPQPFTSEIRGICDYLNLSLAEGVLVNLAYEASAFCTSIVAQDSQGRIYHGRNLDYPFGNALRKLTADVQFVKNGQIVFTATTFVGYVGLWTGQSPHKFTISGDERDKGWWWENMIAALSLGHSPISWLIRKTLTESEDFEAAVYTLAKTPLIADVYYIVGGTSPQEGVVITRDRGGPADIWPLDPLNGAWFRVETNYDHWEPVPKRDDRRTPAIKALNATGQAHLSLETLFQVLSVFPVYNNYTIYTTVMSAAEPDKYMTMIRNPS
- assay comment: Inhibition of rat NAAA expressed in HEK293 cells by LC/MS analysis
parameter: pIC50
Scale for pIC50: -log10 of concentration given in mol/L; no unit attached.

Endpoint output: pIC50 of O=C(CCc1ccc(-c2ccccc2)cc1)N1CCCC1 . Value?
5.67
